From: paper PMC6127852

# System: polyA-polyU
# EXPERIMENTAL DETAILS: Thermal melting (ΔTm) of polyA-polyU
# Format: binding
# REPORTED CONDITIONS: r = 0.5; footnote c: biphasic melting curve
MEASUREMENT TYPE: ΔTm, polyA-polyU, r = 0.5, second melting midpoint

c1ccc(Cn2cc(COc3ccc(-c4nc5cc(C6=NCCN6)ccc5[nH]4)cc3)nn2)cc1 [Compound 9d] = 13.29^c °C

Please give ΔTm, polyA-polyU, r = 0.5, second melting midpoint, item by item, for the list that follows.
1. COc1ccc(-n2cc(COc3ccc(-c4nc5cc(C6=NCCN6)ccc5[nH]4)cc3)nn2)cc1.Cl.Cl [Compound 9b]
2. Cl.Cl.N=C(N)c1ccc2[nH]c(-c3ccc(OCc4cn(CSc5ccccc5)nn4)cc3)nc2c1 [Compound 7e]

1: 40.93^c °C; 2: 15.04^c °C

Count: 2. Required value per item: ΔTm, polyA-polyU, r = 0.5, second melting midpoint.
1. Cl.Cl.c1ccc(SCn2cc(COc3ccc(-c4nc5cc(C6=NCCN6)ccc5[nH]4)cc3)nn2)cc1 [Compound 9e]
2. COc1ccc(-n2cc(COc3ccc(-c4nc5cc(C(=N)NC(C)C)ccc5[nH]4)cc3)nn2)cc1.Cl.Cl [Compound 8b]

1: 13.89^c °C; 2: 8.49^c °C

* * *

Could you please report measured Hypochromic effect H/%, polyC-polyG for the items listed next?
# Test system: polyC-polyG
# EXPERIMENTAL DETAILS: UV–Vis titration with polyC-polyG (Scatchard)
# Type: binding
# REPORTED CONDITIONS: UV–Vis titration, PBS, pH 7; calculated by Scatchard equation
One number for each entry, in %.

Cl.Cl.Clc1ccccc1-n1cc(COc2ccc(-c3nc4cc(C5=NCCN5)ccc4[nH]3)cc2)nn1 = 5.34
Cl.Cl.N=C(N)c1ccc2[nH]c(-c3ccc(OCc4cn(CSc5ccccc5)nn4)cc3)nc2c1 = 5.79
c1ccc(Cn2cc(COc3ccc(-c4nc5cc(C6=NCCN6)ccc5[nH]4)cc3)nn2)cc1 = 5.89

Report Hypochromic effect H/%, polyC-polyG for each item below.
1. Cl.Cl.c1ccc(SCn2cc(COc3ccc(-c4nc5cc(C6=NCCN6)ccc5[nH]4)cc3)nn2)cc1
2. CC(C)NC(=N)c1ccc2[nH]c(-c3ccc(OCc4cn(-c5ccccc5Cl)nn4)cc3)nc2c1.Cl.Cl
3. CC(C)NC(=N)c1ccc2[nH]c(-c3ccc(OCc4cn(CSc5ccccc5)nn4)cc3)nc2c1.Cl.Cl
4. COc1ccc(-n2cc(COc3ccc(-c4nc5cc(C(=N)NC(C)C)ccc5[nH]4)cc3)nn2)cc1.Cl.Cl
5. CC(C)NC(=N)c1ccc2[nH]c(-c3ccc(OCc4cn(-c5ccccc5)nn4)cc3)nc2c1
6. COc1ccc(-n2cc(COc3ccc(-c4nc5cc(C(=N)N)ccc5[nH]4)cc3)nn2)cc1.Cl.Cl

5.21
5.31
5.96
5.05
5.86
13.7

* * *

# Test system: polyA-polyU (RNA, polymer) A/U
# EXPERIMENTAL DETAILS: UV-Vis titration, Scatchard
# REPORTED CONDITIONS: PBS, I = 0.05 M (Table 1 says I = 0.015 M), cations not specified, I = 0.015 M (Methods: 0.05 M), pH 7, per base
Consider the following compounds; for each one, report its log Ks.
Answers are plain numbers.

Previously resolved entries follow.
Cl.Cl.Clc1ccccc1-n1cc(COc2ccc(-c3nc4cc(C5=NCCN5)ccc4[nH]3)cc2)nn1 [Compound 9c] = 5.38
Cl.Cl.N=C(N)c1ccc2[nH]c(-c3ccc(OCc4cn(-c5ccccc5Cl)nn4)cc3)nc2c1 [Compound 7c] = 5.21
Cl.Cl.c1ccc(SCn2cc(COc3ccc(-c4nc5cc(C6=NCCN6)ccc5[nH]4)cc3)nn2)cc1 [Compound 9e] = 5.36
CC(C)NC(=N)c1ccc2[nH]c(-c3ccc(OCc4cn(Cc5ccccc5)nn4)cc3)nc2c1 [Compound 8d] = 6.13
Cl.Cl.N=C(N)c1ccc2[nH]c(-c3ccc(OCc4cn(CSc5ccccc5)nn4)cc3)nc2c1 [Compound 7e] = 6.20

# map each compound to its log Ks
1. CC(C)NC(=N)c1ccc2[nH]c(-c3ccc(OCc4cn(-c5ccccc5)nn4)cc3)nc2c1 [Compound 8a]
2. N=C(N)c1ccc2[nH]c(-c3ccc(OCc4cn(Cc5ccccc5)nn4)cc3)nc2c1 [Compound 7d]

1. 5.87
2. 5.94
